ASSAY_SYSTEM: α-glucosidase (Saccharomyces cerevisiae, UniProt P53341)
Sequence (P53341 whole entry): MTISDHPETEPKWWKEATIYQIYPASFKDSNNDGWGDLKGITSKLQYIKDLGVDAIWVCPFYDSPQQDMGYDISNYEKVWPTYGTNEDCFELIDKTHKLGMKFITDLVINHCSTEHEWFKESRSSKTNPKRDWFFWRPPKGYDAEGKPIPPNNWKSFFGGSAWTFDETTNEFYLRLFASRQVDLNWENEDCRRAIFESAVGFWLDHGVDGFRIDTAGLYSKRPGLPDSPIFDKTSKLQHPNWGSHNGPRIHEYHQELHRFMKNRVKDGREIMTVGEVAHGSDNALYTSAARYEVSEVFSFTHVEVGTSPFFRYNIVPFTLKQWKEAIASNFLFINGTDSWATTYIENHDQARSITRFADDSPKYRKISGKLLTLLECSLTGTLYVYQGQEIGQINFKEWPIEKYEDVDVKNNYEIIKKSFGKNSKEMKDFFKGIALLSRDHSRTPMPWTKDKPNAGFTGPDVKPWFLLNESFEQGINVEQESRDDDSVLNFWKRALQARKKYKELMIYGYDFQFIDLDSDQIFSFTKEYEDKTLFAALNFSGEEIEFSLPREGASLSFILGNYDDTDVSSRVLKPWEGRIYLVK
RESULT_TYPE: pKi
API: returns pKi as number; meaning -log10 of concentration in mol/L.

Enquiry: Please look up its pKi: Brc1ccc(CSc2nc3ccccc3cc2-c2nc3ccccc3[nH]2)cc1
Return: 4.55

---

Listed here: items and their measured pIC50.
ASSAY_SYSTEM: α-Glucosidase enzyme (EC3.2.1.20, Saccharomyces cerevisiae) (Saccharomyces cerevisiae)
API: returns pIC50 as number; meaning -log10 of concentration in mol/L.

Guide cases for pIC50, answers given:
compound_smiles=Clc1ccc(CSc2nc3ccccc3cc2-c2nc3ccccc3[nH]2)cc1 assay_system="α-Glucosidase enzyme (EC3.2.1.20, Saccharomyces cerevisiae) (Saccharomyces cerevisiae)" result_type=pIC50 value_observed=4.02
compound_smiles=Clc1ccc(CSc2nc3ccccc3cc2-c2nc3ccccc3[nH]2)cc1Cl assay_system="α-Glucosidase enzyme (EC3.2.1.20, Saccharomyces cerevisiae) (Saccharomyces cerevisiae)" result_type=pIC50 value_observed=4.00
compound_smiles=c1ccc(CSc2nc3ccccc3cc2-c2nc3ccccc3[nH]2)cc1 assay_system="α-Glucosidase enzyme (EC3.2.1.20, Saccharomyces cerevisiae) (Saccharomyces cerevisiae)" result_type=pIC50 value_observed=3.81

Here is another compound to look at.
Enquiry: Please look up its pIC50: Clc1ccccc1CSc1nc2ccccc2cc1-c1nc2ccccc2[nH]1
Return: 3.18

---

Listed here: items and their measured pIC50.
ASSAY_SYSTEM: α-Glucosidase enzyme (EC3.2.1.20, Saccharomyces cerevisiae) (Saccharomyces cerevisiae)
Construct: purchased Sigma-Aldrich
ASSAY_INFO: biochemical
ASSAY_SETUP: α-glucosidase from S. cerevisiae, substrate p-nitrophenyl glucopyranoside, pH 6.8, 37 °C; mean ± SD
API: returns pIC50 as number; meaning -log10 of concentration in mol/L.

Guide cases for pIC50, answers given:
compound_smiles=Fc1cccc(CSc2nc3ccccc3cc2-c2nc3ccccc3[nH]2)c1 result_type=pIC50 value_observed=4.12
compound_smiles=Brc1cccc(CSc2nc3ccccc3cc2-c2nc3ccccc3[nH]2)c1 result_type=pIC50 value_observed=4.18
compound_smiles=Clc1cccc(CSc2nc3ccccc3cc2-c2nc3ccccc3[nH]2)c1 result_type=pIC50 value_observed=4.32

Enquiry: Find the measured pIC50: item Brc1ccc(CSc2nc3ccccc3cc2-c2nc3ccccc3[nH]2)cc1 , target or system α-Glucosidase enzyme (EC3.2.1.20, Saccharomyces cerevisiae) (Saccharomyces cerevisiae).
Return: 4.55

Enquiry: Find the measured pIC50: item Cc1cccc(CSc2nc3ccccc3cc2-c2nc3ccccc3[nH]2)c1C , target or system α-Glucosidase enzyme (EC3.2.1.20, Saccharomyces cerevisiae) (Saccharomyces cerevisiae).
Return: 3.90

---

ASSAY_SYSTEM: α-Glucosidase enzyme (EC3.2.1.20, Saccharomyces cerevisiae) (Saccharomyces cerevisiae)
RESULT_TYPE: pIC50
API: returns pIC50 as number; meaning -log10 of concentration in mol/L.

Guide cases for pIC50, answers given:
compound_smiles=Fc1ccccc1CSc1nc2ccccc2cc1-c1nc2ccccc2[nH]1 assay_system="α-Glucosidase enzyme (EC3.2.1.20, Saccharomyces cerevisiae) (Saccharomyces cerevisiae)" result_type=pIC50 value_observed=3.73
compound_smiles=Cc1cccc(CSc2nc3ccccc3cc2-c2nc3ccccc3[nH]2)c1 assay_system="α-Glucosidase enzyme (EC3.2.1.20, Saccharomyces cerevisiae) (Saccharomyces cerevisiae)" result_type=pIC50 value_observed=3.80

Enquiry: Find the measured pIC50: item COc1ccc(CSc2nc3ccccc3cc2-c2nc3ccccc3[nH]2)cc1 , target or system α-Glucosidase enzyme (EC3.2.1.20, Saccharomyces cerevisiae) (Saccharomyces cerevisiae).
Return: 4.17

Enquiry: Find the measured pIC50: item Cc1ccc(CSc2nc3ccccc3cc2-c2nc3ccccc3[nH]2)cc1 , target or system α-Glucosidase enzyme (EC3.2.1.20, Saccharomyces cerevisiae) (Saccharomyces cerevisiae).
Return: 3.93

Enquiry: Find the measured pIC50: item Brc1ccccc1CSc1nc2ccccc2cc1-c1nc2ccccc2[nH]1 , target or system α-Glucosidase enzyme (EC3.2.1.20, Saccharomyces cerevisiae) (Saccharomyces cerevisiae).
Return: 3.87

Enquiry: Find the measured pIC50: item Fc1ccc(CSc2nc3ccccc3cc2-c2nc3ccccc3[nH]2)cc1 , target or system α-Glucosidase enzyme (EC3.2.1.20, Saccharomyces cerevisiae) (Saccharomyces cerevisiae).
Return: 4.09

Enquiry: Find the measured pIC50: item O=[N+]([O-])c1ccc(CSc2nc3ccccc3cc2-c2nc3ccccc3[nH]2)cc1 , target or system α-Glucosidase enzyme (EC3.2.1.20, Saccharomyces cerevisiae) (Saccharomyces cerevisiae).
Return: 4.05

Enquiry: Find the measured pIC50: item Cc1ccccc1CSc1nc2ccccc2cc1-c1nc2ccccc2[nH]1 , target or system α-Glucosidase enzyme (EC3.2.1.20, Saccharomyces cerevisiae) (Saccharomyces cerevisiae).
Return: 3.71

Enquiry: Find the measured pIC50: item CCSc1nc2ccccc2cc1-c1nc2ccccc2[nH]1 , target or system α-Glucosidase enzyme (EC3.2.1.20, Saccharomyces cerevisiae) (Saccharomyces cerevisiae).
Return: 3.52

The measurements presented in this section are drawn from paper PMC10020548.
